Data origin, for the record: patent US8969360B2

Target: ATR kinase (Homo sapiens, UniProt Q13535)
Construct: Assays were carried out at 25° C. in the presence of 5 nM full-length ATR
Sequence (Q13535 whole entry): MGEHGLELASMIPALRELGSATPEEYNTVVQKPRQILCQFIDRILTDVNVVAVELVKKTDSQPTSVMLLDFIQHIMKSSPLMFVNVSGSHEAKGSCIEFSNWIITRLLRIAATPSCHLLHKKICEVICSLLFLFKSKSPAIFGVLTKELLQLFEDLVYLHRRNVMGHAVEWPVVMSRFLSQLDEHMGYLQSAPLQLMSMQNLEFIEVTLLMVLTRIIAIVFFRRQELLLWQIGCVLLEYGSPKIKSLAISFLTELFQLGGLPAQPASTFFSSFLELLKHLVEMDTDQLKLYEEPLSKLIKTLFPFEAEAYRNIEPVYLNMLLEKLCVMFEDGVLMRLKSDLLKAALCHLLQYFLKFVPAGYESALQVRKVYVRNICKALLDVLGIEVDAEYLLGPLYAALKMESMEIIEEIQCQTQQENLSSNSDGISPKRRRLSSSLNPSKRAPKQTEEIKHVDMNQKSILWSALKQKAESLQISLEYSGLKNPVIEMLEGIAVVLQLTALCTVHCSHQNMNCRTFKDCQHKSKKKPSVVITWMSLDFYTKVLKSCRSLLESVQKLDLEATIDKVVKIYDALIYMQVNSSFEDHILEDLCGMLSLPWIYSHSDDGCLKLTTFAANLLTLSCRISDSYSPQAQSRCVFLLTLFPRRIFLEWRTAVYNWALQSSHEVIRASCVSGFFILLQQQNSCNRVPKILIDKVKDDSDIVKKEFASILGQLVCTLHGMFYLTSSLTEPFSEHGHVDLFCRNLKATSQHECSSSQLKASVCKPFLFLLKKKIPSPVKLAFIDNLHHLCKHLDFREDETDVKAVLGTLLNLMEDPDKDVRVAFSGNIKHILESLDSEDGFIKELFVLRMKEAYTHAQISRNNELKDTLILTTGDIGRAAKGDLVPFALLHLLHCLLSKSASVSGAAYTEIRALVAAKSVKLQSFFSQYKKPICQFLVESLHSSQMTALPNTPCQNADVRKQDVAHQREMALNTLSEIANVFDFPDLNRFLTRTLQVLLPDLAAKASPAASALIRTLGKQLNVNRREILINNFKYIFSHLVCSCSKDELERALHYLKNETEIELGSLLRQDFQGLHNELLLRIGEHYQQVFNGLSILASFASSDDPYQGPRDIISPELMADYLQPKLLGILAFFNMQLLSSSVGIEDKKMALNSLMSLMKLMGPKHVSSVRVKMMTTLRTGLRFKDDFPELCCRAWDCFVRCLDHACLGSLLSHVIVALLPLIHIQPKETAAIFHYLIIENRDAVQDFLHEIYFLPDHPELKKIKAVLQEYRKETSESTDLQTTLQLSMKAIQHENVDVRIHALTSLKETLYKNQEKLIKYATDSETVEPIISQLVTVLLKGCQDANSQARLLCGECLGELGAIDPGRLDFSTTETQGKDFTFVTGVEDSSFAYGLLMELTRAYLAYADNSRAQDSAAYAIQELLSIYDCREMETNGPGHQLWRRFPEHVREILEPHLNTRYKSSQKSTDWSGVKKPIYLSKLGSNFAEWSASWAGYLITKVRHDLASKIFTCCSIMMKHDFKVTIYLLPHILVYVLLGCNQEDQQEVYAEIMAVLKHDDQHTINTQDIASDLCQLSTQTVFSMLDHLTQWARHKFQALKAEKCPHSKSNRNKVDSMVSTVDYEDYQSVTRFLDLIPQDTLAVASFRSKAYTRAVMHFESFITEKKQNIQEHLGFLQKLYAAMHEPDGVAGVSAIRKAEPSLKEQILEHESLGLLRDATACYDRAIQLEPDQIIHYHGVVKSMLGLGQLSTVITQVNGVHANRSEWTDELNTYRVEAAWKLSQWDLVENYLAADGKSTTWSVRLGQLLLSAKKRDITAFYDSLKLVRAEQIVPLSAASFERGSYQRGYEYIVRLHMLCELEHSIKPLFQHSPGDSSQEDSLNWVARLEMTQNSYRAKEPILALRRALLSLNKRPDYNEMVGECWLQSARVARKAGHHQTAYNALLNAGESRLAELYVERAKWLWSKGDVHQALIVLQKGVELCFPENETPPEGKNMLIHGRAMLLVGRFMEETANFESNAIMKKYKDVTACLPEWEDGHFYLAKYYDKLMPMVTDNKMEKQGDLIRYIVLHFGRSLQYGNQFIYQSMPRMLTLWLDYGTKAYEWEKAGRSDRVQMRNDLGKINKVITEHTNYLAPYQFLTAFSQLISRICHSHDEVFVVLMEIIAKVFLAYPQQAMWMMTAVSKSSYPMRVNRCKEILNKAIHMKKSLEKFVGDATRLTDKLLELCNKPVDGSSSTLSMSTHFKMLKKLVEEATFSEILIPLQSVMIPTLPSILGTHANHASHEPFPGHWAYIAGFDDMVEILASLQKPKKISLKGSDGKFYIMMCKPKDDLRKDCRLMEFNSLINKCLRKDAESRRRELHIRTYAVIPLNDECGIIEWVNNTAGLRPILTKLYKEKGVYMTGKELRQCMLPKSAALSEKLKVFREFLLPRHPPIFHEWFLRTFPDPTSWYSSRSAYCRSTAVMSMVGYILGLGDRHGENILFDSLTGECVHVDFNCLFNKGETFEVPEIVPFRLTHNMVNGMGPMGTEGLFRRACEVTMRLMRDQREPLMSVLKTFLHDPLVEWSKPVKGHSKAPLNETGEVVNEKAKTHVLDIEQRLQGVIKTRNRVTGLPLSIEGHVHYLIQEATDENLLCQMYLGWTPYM
Test: ATR Inhibition Assay (radioactive-phosphate incorporation)
Assay type: biochemical
Conditions: Ki(app); 5 nM full-length ATR, 10 μM ATP, 800 μM target peptide, 25° C.
Experimental: Compounds were screened for their ability to inhibit ATR kinase using a radioactive-phosphate incorporation assay. Assays were carried out in a mixture of 50 mM Tris/HCl (pH 7.5), 10 mM MgCl2 and 1 mM DTT. […] After removing mean background values for all of the data points, Ki(app) data were calculated from non-linear regression analysis of the initial rate data using the Prism software package (GraphPad Prism version 3.0cx for Macintosh, GraphPad Software, San Diego Calif., USA). […]

compound | Ki
CN1CCN(c2ccncc2NC(=O)c2c(N)nn3ccc(C(F)(F)F)nc23)CC1 | 10 to 1000 nM
CN(C)C1CCC(Oc2ccncc2NC(=O)c2c(N)nn3ccc(C(F)(F)F)nc23)CC1 (stereo not drawn) [I-O-44] | 1000 to 5000 nM
COc1ccncc1NC(=O)c1c(N)nn2ccc(N3CCNC(C(F)(F)F)C3)nc12 (stereo not drawn) | < 10 nM
Nc1nn2ccc(C(F)(F)F)nc2c1C(=O)Nc1cnccc1OCCN1CC2(COC2)C1 | 10 to 1000 nM
CN(C)[C@H]1CC[C@@H](Oc2ccncc2NC(=O)c2c(N)nn3ccc(C(F)(F)F)nc23)CC1 | 10 to 1000 nM
Nc1nn2ccc(C(F)(F)F)nc2c1C(=O)Nc1cnccc1OC1CCCNC1 (stereo not drawn) | 10 to 1000 nM
CC(C)Oc1ccncc1NC(=O)c1c(N)nn2ccc(C(F)(F)F)nc12 | 10 to 1000 nM
Nc1nn2ccc(C(F)(F)F)nc2c1C(=O)Nc1cnccc1OCC(F)(F)F | < 10 nM
Nc1nn2ccc(C(F)(F)F)nc2c1C(=O)Nc1cnccc1-c1ccccc1 | 10 to 1000 nM

* * *

Target: ATR kinase (Homo sapiens, UniProt Q13535)
Construct: Assays were carried out at 25° C. in the presence of 5 nM full-length ATR
Test: ATR Inhibition Assay (radioactive-phosphate incorporation)
Conditions: Ki(app); 5 nM full-length ATR, 10 μM ATP, 800 μM target peptide, 25° C.
Listed below: Ki values for each entry.

molecule | targetUnderTest | Ki
Nc1nn2ccc(C(F)(F)F)nc2c1C(=O)Nc1cnccc1OCCCO | ATR kinase (Homo sapiens, UniProt Q13535) | < 10 nM
Nc1nn2ccc(C(F)(F)F)nc2c1C(=O)Nc1cnccc1Oc1ccncc1 | ATR kinase (Homo sapiens, UniProt Q13535) | 10 to 1000 nM
Nc1nn2ccc(C(F)(F)F)nc2c1C(=O)Nc1cnccc1OC1CNC1 | ATR kinase (Homo sapiens, UniProt Q13535) | 10 to 1000 nM
CN(C)C1CCC(Oc2ccncc2NC(=O)c2c(N)nn3ccc(C(F)(F)F)nc23)CC1 (stereo not shown) [I-O-35] | ATR kinase (Homo sapiens, UniProt Q13535) | 10 to 1000 nM
COc1ccncc1NC(=O)c1c(N)nn2ccc(CO)nc12 | ATR kinase (Homo sapiens, UniProt Q13535) | 10 to 1000 nM
COCCN1CCC[C@@H](Oc2ccncc2NC(=O)c2c(N)nn3ccc(C(F)(F)F)nc23)C1 | ATR kinase (Homo sapiens, UniProt Q13535) | 10 to 1000 nM
CC(C)(C#N)c1ccn2nc(N)c(C(=O)Nc3cnccc3OC3CNC3)c2n1 | ATR kinase (Homo sapiens, UniProt Q13535) | 10 to 1000 nM
CN1CC(Oc2ccncc2NC(=O)c2c(N)nn3ccc(C(F)(F)F)nc23)C1 | ATR kinase (Homo sapiens, UniProt Q13535) | 10 to 1000 nM
Nc1nn2ccc(C(F)(F)F)nc2c1C(=O)Nc1cnccc1OCC1CCC(N)CC1 (stereo not shown) | ATR kinase (Homo sapiens, UniProt Q13535) | 10 to 1000 nM
CN(C)CCOc1cc(Cl)ncc1NC(=O)c1c(N)nn2ccc(C(F)(F)F)nc12 | ATR kinase (Homo sapiens, UniProt Q13535) | 10 to 1000 nM
COc1c(Cl)cncc1NC(=O)c1c(N)nn2ccc(C(F)(F)F)nc12 | ATR kinase (Homo sapiens, UniProt Q13535) | 10 to 1000 nM
CCOc1ccncc1NC(=O)c1c(N)nn2ccc(C(F)(F)F)nc12 | ATR kinase (Homo sapiens, UniProt Q13535) | < 10 nM
Nc1nn2ccc(C(F)(F)F)nc2c1C(=O)Nc1cnccc1OC1CCC2(CC1)OCCO2 | ATR kinase (Homo sapiens, UniProt Q13535) | 10 to 1000 nM
CN(C)CCCOc1ccncc1NC(=O)c1c(N)nn2ccc(C(F)(F)F)nc12 | ATR kinase (Homo sapiens, UniProt Q13535) | 10 to 1000 nM
COc1ccncc1NC(=O)c1c(N)nn2ccc(NCC3CCCN3C)nc12 (stereo not shown) | ATR kinase (Homo sapiens, UniProt Q13535) | 10 to 1000 nM
COc1ccncc1NC(=O)c1c(N)nn2ccc(OC3CCN(C)CC3)nc12 | ATR kinase (Homo sapiens, UniProt Q13535) | 10 to 1000 nM
Nc1nn2ccc(C(F)(F)F)nc2c1C(=O)Nc1cnccc1OC1CCOCC1 | ATR kinase (Homo sapiens, UniProt Q13535) | 10 to 1000 nM
COc1ccncc1NC(=O)c1c(N)nn2ccc(N3CCN(C)CC3)nc12 | ATR kinase (Homo sapiens, UniProt Q13535) | 10 to 1000 nM
COc1ccncc1NC(=O)c1c(N)nn2ccc(C(C)(C)C#N)nc12 | ATR kinase (Homo sapiens, UniProt Q13535) | 10 to 1000 nM
